- Tested on: SB.msgc-1
- ASSAY TEXT: AC50 for growth inhibition (viability) (log10 M); higher = less potent
- MEASUREMENT PARAMETERS: SB.msgc-1 (sporadic gastric cancer)
Values of AC50 for growth inhibition (log10 M) strictly less than -5 map to t, and values of at least -5 map to f.

{"COMPOUND": "NC1(Cc2ccc(Cl)cc2)CCN(c2ncnc3[nH]ccc23)CC1", "TARGET OF ASSAY": "SB.msgc-1", "CATEGORY LABEL": "f"}
{"COMPOUND": "COc1ccc(-c2nc(N3CCOCC3)c3sc(CN(C)c4ncc(C(=O)NO)cn4)cc3n2)cn1", "TARGET OF ASSAY": "SB.msgc-1", "CATEGORY LABEL": "t"}
{"COMPOUND": "c1cncc(CN2CCC(n3ncc4c(N5CCOCC5)nc(-c5ccc6[nH]ccc6c5)nc43)CC2)c1", "TARGET OF ASSAY": "SB.msgc-1", "CATEGORY LABEL": "f"}
{"COMPOUND": "CC(C)c1cnn2c(NCc3ccccc3)cc(N[C@@H](CO)[C@H](O)CO)nc12", "TARGET OF ASSAY": "SB.msgc-1", "CATEGORY LABEL": "t"}
{"COMPOUND": "Cc1c(CN2CCN([S+](C)(=O)[O-])CC2)sc2c(N3CCOCC3)nc(-c3cnc(N)nc3)nc12", "TARGET OF ASSAY": "SB.msgc-1", "CATEGORY LABEL": "t"}
{"COMPOUND": "COc1cc2ncnc(Nc3cc(Br)c(O)c(Br)c3)c2cc1OC", "TARGET OF ASSAY": "SB.msgc-1", "CATEGORY LABEL": "t"}
{"COMPOUND": "CCCCc1nc2cc(/C=C/C(=O)NO)ccc2n1CCN(CC)CC", "TARGET OF ASSAY": "SB.msgc-1", "CATEGORY LABEL": "t"}
{"COMPOUND": "CCOc1ccc(Nc2nc(-c3c(C)nc4ccccn34)cs2)cc1", "TARGET OF ASSAY": "SB.msgc-1", "CATEGORY LABEL": "t"}
{"COMPOUND": "CN1CCN(CC1)C2=CC3=C([NH]C(=N3)C/4=C(\\N)C5=C(F)C=CC=C5NC4=O)C=C2", "TARGET OF ASSAY": "SB.msgc-1", "CATEGORY LABEL": "f"}
{"COMPOUND": "C[C@]\\1(CCS\\C(=N1)N)C2=CC(=C(F)C=C2F)C3=CN=CN=C3", "TARGET OF ASSAY": "SB.msgc-1", "CATEGORY LABEL": "f"}
{"COMPOUND": "COc1cc2nccc(Oc3ccc(NC(=O)NC4CC4)c(Cl)c3)c2cc1C(N)=O", "TARGET OF ASSAY": "SB.msgc-1", "CATEGORY LABEL": "t"}
{"COMPOUND": "COc1cc([C@@H]2c3cc4c(cc3[C@@H](O[C@@H]3O[C@@H]5CO[C@@H](c6cccs6)O[C@H]5[C@H](O)[C@H]3O)[C@H]3COC(=O)[C@H]23)OCO4)cc(OC)c1O [Teniposide]", "TARGET OF ASSAY": "SB.msgc-1", "CATEGORY LABEL": "t"}
{"COMPOUND": "Nc1ccc(C(=O)Nc2cccc(-c3nc(N4CCOCC4)c4oc5ncccc5c4n3)c2)cn1", "TARGET OF ASSAY": "SB.msgc-1", "CATEGORY LABEL": "t"}
{"COMPOUND": "C[C@H]1[C@@H](OC(=O)CCC(=O)O)O[C@@H]2O[C@@]3(C)CC[C@H]4[C@H](C)CC[C@@H]1[C@@]24OO3 [Artesunate (AS)]", "TARGET OF ASSAY": "SB.msgc-1", "CATEGORY LABEL": "t"}
{"COMPOUND": "c1cc(OCCN2CCCCC2)cc(-c2n[nH]c3ccc(-c4nc[nH]n4)cc23)c1", "TARGET OF ASSAY": "SB.msgc-1", "CATEGORY LABEL": "f"}
